Taken from paper PMC9352680.

- target-of-assay: T1, PUF4 RNA-binding domain (Saccharomyces cerevisiae, UniProt P25339 537-888)
- T1 sequence: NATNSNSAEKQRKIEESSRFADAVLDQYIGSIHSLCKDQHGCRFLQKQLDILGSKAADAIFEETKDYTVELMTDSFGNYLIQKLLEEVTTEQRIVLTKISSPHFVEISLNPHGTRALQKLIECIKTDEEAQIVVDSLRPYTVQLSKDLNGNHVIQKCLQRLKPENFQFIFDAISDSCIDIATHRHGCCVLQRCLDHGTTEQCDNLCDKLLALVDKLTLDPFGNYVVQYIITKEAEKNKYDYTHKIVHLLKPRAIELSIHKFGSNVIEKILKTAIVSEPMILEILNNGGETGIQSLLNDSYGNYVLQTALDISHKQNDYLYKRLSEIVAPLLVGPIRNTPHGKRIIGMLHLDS
- test-name: Mg; RNA-MaP; 20 mM Na-HEPES pH 7.4, 30 mM KOAc, 0.75 mM MgCl2, 0.1% Tween-20, 5% glycerol, 0.1 mg/mL BSA, 2 mM DTT; 25 C; 0.0125-409.6 nM protein
- assay-conditions: tags: N-His6-TEV cleaved; C-SNAP kept, Cy3B-labelled; label: tethered on chip by stalled RNA polymerase
Please provide measured Kd for the entries that follow.

[ask] Note down Kd recorded for UCUCUUUUACACUAUAAUUCUCUU (ssRNA) [Id_ii_S1_P3E.4_K3.3_C3.2_[C-2T]_H3.3_A3.1_F3.1_T3.2_[T9A]_[A10T]]
[reply] > 2300 nM

[ask] Quote Kd reported for UCUCUUUGUAGCCCGUCUCUU (ssRNA) [Ic_S1_P4E.1_K4.1_C4.1_H4.1_A4.1_[T5G]_[A6C]_[T7C]_F4.1_[T8C]_[A9G]_T4.1] please.
[reply] > 2300 nM

[ask] Dear colleague, please send me the reported Kd for Id_iii_S2_P5E.7_K5.3_C5.3_H5.3_A5.1_F5.1_T5.2_[A12C] (ssRNA) RNA: UUUGAUUAAUAUGAUAUCGUUCUUUCUUCUACACUUAUUAUCUUCUUUCUCGAUAUCAUAUUAAUCUUU when you can.
[reply] > 2300 nM
